Assay: AUC (infinity) in CD1 mouse at 20 mg/kg, ip measured after 24 hrs by LC/MS/MS method
Format: ADME, organism-based
Design: route intraperitoneal, dose 20 mg/kg, time 24 hrs
Details: in vivo
MEASURED_METRIC: AUC(0-inf) (ng·h/mL)
State just the number; it will be interpreted in ng·h/mL.

Given item `O=C(NO)c1ccc(CNC(=O)c2c(F)c(F)c(F)c(F)c2F)cc1` , the value recorded as its AUC(0-inf) is 219

====

Assay: Efflux ratio of apparent permeability in human Caco2 cells measured after 2 hrs by LC-MS/MS method
Assay type: ADME, cell-based
Conditions: Caco-2
MEASURED_METRIC: efflux ratio at 2 h
Form field (numeric): enter value without unit.

Given item `O=C(NO)c1ccc(CNC(=O)c2c(F)c(F)c(F)c(F)c2F)cc1` , the value recorded as its efflux ratio at 2 h is 0.71

====

Listed here are molecules together with their documented pIC50.
Test system: HUVEC
Assay: Cytotoxicity against human HUVEC cells measured after 72 hrs by spectrophotometer method
Type: cell-based
Lab note: report pIC50 as minus log10 of the concentration in molar units, number only.

O=C(NO)c1ccc(CNC(=O)c2c(F)c(F)c(F)c(F)c2F)cc1 : 4.99

Could you now look at the following molecule, please?
Entry `O=C(CCCCCCNC(=O)c1cnc(N(c2ccccc2)c2ccccc2Cl)nc1)NO` , HUVEC data, pIC50 value: 5.31

====

Target: Histone deacetylase 3 (Homo sapiens)
Sequence (O15379 whole entry): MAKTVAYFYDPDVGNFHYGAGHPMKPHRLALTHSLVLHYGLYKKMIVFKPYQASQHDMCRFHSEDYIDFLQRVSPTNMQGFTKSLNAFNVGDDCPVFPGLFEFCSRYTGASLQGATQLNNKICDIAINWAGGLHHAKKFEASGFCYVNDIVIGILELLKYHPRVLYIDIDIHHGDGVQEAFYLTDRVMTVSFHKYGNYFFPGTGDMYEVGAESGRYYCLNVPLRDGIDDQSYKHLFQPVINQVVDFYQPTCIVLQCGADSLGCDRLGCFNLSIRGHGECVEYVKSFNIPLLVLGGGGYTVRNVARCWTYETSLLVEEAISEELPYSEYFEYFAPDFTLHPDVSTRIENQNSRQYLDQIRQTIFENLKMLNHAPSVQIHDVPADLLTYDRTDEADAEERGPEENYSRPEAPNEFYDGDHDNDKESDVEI
Assay: Inhibition of recombinant full length human HDAC3 expressed in SF9 baculovirus using FAM- labelled acetylated peptide as substrate measured by Electrophoretic mobility shift assay
Listed here are molecules together with their documented pIC50.
Lab note: report pIC50 as minus log10 of the concentration in molar units, number only.

Below: 4 molecules and their reported pIC50.
CC(C)(C)c1ccc(S(=O)(=O)Nc2ccc(C(=O)NO)cc2)cc1 : 8.65
CC(C)(C)c1ccc(C(=O)NCc2ccc(C(=O)NO)cc2)cc1 : 7.82
CC(C)(C)c1ccc(S(=O)(=O)NCc2ccc(C(=O)NO)cc2)cc1 : 6.53
CC(C)(C)c1ccc(NS(=O)(=O)c2ccc(C(=O)NO)cc2)cc1 : 7.46

Given item `CN(Cc1ccc(C(=O)NO)cc1)C(=O)c1c(F)c(F)c(F)c(F)c1F` , the value recorded as its pIC50 is 6.13

Given item `O=C(NO)c1ccc(NC(=O)c2ccc(C(F)(F)F)cc2)cc1` , the value recorded as its pIC50 is 6.61

Given item `O=C(/C=C/c1ccc(CN(C(=O)c2c(F)c(F)c(F)c(F)c2F)C2CC2)cc1)NO` , the value recorded as its pIC50 is 7.15

Given item `Cc1ccc(C(=O)Nc2ccc(C(=O)NO)cc2)cc1` , the value recorded as its pIC50 is 7.96

====

Test: Glutathione reactivity at pH 7.4 assessed as compound remaining measured after 60 mins by LC-MS/MS method
Format: physicochemical
Conditions: glutathione solution, read-out: Stabilty
MEASURED_METRIC: remaining at 1 h (%)
State just the number; it will be interpreted in %.

Given item `O=C(NO)c1ccc(CNC(=O)c2c(F)c(F)c(F)c(F)c2F)cc1` , the value recorded as its remaining at 1 h is 98

====

Molecular target: Protein deacetylase HDAC6 (Homo sapiens)
Sequence (Q9UBN7 whole entry): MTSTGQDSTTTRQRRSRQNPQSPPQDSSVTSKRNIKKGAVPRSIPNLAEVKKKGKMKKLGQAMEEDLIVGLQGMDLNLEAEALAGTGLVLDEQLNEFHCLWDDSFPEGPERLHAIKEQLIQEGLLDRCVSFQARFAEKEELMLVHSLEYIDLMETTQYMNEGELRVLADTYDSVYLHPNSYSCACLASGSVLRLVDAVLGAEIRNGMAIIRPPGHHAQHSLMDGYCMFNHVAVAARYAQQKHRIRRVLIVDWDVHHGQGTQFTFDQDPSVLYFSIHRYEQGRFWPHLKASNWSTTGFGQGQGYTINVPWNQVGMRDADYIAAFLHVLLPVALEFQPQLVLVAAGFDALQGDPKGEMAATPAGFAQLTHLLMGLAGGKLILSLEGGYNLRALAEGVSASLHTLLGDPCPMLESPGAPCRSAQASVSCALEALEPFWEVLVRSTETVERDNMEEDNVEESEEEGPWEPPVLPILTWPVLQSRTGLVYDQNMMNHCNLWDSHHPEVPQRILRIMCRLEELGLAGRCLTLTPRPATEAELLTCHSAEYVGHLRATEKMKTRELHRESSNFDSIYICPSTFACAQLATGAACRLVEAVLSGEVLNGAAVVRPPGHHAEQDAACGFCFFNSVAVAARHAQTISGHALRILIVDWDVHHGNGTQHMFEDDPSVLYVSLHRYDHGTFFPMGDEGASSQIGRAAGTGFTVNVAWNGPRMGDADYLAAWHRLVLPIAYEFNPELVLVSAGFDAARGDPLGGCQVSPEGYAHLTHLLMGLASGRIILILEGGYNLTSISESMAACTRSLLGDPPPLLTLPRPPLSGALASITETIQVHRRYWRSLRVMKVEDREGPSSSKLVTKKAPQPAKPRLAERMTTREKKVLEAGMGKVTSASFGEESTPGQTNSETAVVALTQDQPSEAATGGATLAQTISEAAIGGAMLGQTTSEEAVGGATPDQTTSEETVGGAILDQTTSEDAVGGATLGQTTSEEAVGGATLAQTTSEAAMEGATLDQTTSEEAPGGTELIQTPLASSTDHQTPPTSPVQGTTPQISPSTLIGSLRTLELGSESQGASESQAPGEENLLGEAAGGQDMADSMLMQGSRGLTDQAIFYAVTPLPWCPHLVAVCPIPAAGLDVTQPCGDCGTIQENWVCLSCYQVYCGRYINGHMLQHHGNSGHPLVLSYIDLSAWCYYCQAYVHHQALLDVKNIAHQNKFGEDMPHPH
Assay: Inhibition of HDAC6 in human HeLa cells assessed by deacetylation measured after 15 mins by ELISA
Assay type: cell-based
MEASURED_METRIC: pIC50
Lab note: report pIC50 as minus log10 of the concentration in molar units, number only.

Given item `O=C(NO)c1ccc(CNC(=O)c2c(F)c(F)c(F)c(F)c2F)cc1` , the value recorded as its pIC50 is 6.23
